# Test system: MS2 coat protein
# assay explanation: apparent KD of MS2 coat protein; designed switch direction (-1 OFF switch, 1 ON switch): -1; higher = weaker reporter binding
# cond: Eterna round: R95; input ligand: microRNA oligo, concentration not stated
reported metric: apparent KD of MS2 coat protein (nM)
Answer in nM, number only, no unit symbol.

GGCUAGUCAGGAUAUACGAACAUGUCAAAAGACGUGAAGGGACAUGAGGAUCACCCAUGUAGAAGGGACUAGCG [salish99_ex2_r3_002] (puzzle: Exclusion 2) | 25
GCUUUUCUUUUCCUUUCUUACAUGAGGAUCACCCAUGUUUCUUGUCCUGCUCGCGUUGCUCGUCUGUCUGUCUGUUG [salish99_TOv1_r3_080] (puzzle: Sensor v3, turn-off variant 1) | 24.3
GAAAAGGUAGGAUAUACGAAAAAAAAGGGUAGAAAAAAAACACAUGAGGAUCACCCAUGUAGAAGGGCCAAAAG [salish99_ex2_r3_032] (puzzle: Exclusion 2) | 34
AAAGAACAUGAGGAUCACCCAUGUGAGGAUAUGCGAAAACCGCUAACAAACCAGACGGGCAGAAGGCAUAUGGU [Leistequ] (puzzle: Exclusion 1) | 39.1

The record that follows has no apparent KD of MS2 coat protein shown yet.
Exercise: Give its apparent KD of MS2 coat protein value. Item: GGAGAGUCAGGAUAUCGAAGGUAGAGAAGAGGAGAGUGGUACGAGAAGGGACAUGAGGAUCACCCAUGUAGGUG [JR_Exclusion4)Sub011] (puzzle: Exclusion 4)
Key: 645
